Test system: HEK-293T
EXPERIMENT DESCRIPTION: Multiplex assay against HEK293T
Type: toxicity, cell-based
CONDITION CONTEXT: human, 12 h, 10 µM, compound concentration 10 uM, replicate 1
Give Population Mitochondria Different-Phenotype (%) for every item shown.
Could you write the number and then its unit?

-- ask Quote Population Mitochondria Different-Phenotype (%) reported for `c1ccc2oc(-c3csc(C4CCN(Cc5nc6ncccc6[nH]5)CC4)n3)cc2c1` please.
-- reply 5%

-- ask Quote Population Mitochondria Different-Phenotype (%) reported for CCn1c(-c2nonc2N)nc2cnc(Oc3cccc(NC(=O)c4ccc(OCCN5CCOCC5)cc4)c3)cc21 [GSK-269962A] please.
-- reply 98%

-- ask Quote Population Mitochondria Different-Phenotype (%) reported for `Nc1ccc(C(=O)Nc2cccc(-c3nc(N4CCOCC4)c4oc5ncccc5c4n3)c2)cn1` please.
-- reply 100%

-- ask Quote Population Mitochondria Different-Phenotype (%) reported for `CN(C)CCOc1ccc(-c2nc(-c3ccncc3)c(-c3ccc4c(c3)CC/C4=N\O)[nH]2)cc1` please.
-- reply 8%

----------
Give Growth Rate for every item shown.
Test system: U2OS
EXPERIMENT DESCRIPTION: Incucyte cell viability with U2OS; further: filed as whole numbers so only -1 and 0 and 1 occur
Assay type: toxicity, cell-based
CONDITION CONTEXT: human, 12 h, 10 µM, compound concentration 10 uM, replicate number 1, timepoint 12 hours
The answer should be written as a number, with no unit following it.

-- ask GET Growth Rate | system: U2OS | item: `O=C(O)CC1CCC2(CC1)CCN(c1cc(OC(F)(F)F)ccc1Cl)CC2`
-- reply 1

-- ask GET Growth Rate | system: U2OS | item: `CN(CCOc1ccc(C[C@H](Nc2ccccc2C(=O)c2ccccc2)C(=O)O)cc1)c1ccccn1.O`
-- reply 0

-- ask GET Growth Rate | system: U2OS | item: `C[C@H](CO)Nc1nc(SCc2cccc(Cl)c2F)nc2[nH]c(=O)sc12`
-- reply 0

-- ask GET Growth Rate | system: U2OS | item: `FC(F)(F)c1c(N2CCC(c3ccccc3)CC2)ccn2c(CC3CC3)nnc12`
-- reply 0

-- ask GET Growth Rate | system: U2OS | item: `CCOC(=O)c1cc(C#N)c(N2CCC(C(=O)NS(=O)(=O)Cc3ccccc3)CC2)nc1C`
-- reply 0

-- ask GET Growth Rate | system: U2OS | item: `Clc1cc2c(NC3CCCC3)nnc(-c3ccncc3)c2cc1Cl`
-- reply 1

-- ask GET Growth Rate | system: U2OS | item: CN(C)C(=O)Cn1cc(-c2nc(C3(c4ccc(-c5cnc(N)nc5)cc4)CC3)no2)cn1 [BI 0153]
-- reply 0

-- ask GET Growth Rate | system: U2OS | item: C[C@@H]1CN(c2cc(-c3nn(C)c4ccc(OC5(C)CC5)cc34)ncn2)C[C@H](C)O1 [MLi-2-NC]
-- reply 1

-- ask GET Growth Rate | system: U2OS | item: CNc1cc2[nH]c(=O)n(-c3ccc(NC(=O)NS(=O)(=O)c4ccc(Cl)s4)cc3)c(=O)c2cc1F [ELINOGREL]
-- reply 0

----------
Test system: HEK-293T
EXPERIMENT DESCRIPTION: Multiplex assay against HEK293T
Format: toxicity, cell-based
CONDITION CONTEXT: human, 48 h, 1 µM, compound concentration 1 uM, replicate 1
Kind request: treat 30% as inclusive, so Population Healthy Nuclei (%) at 30% or higher is class 1, anything lower is class 0.

-- ask Does `Nc1ccc(C(=O)Nc2cccc(-c3nc(N4CCOCC4)c4oc5ncccc5c4n3)c2)cn1` have a reported Population Healthy Nuclei (%) of at least 30%?
-- reply class 1

-- ask Does `CC(=O)c1cc(-c2cc(C(=O)NC3CC3)ccc2C)c2ncccn12` have a reported Population Healthy Nuclei (%) of at least 30%?
-- reply class 1

-- ask Does `CNc1oc(-c2cccc3ccccc23)nc1C#N` have a reported Population Healthy Nuclei (%) of at least 30%?
-- reply class 1

-- ask Does CCc1cc2c(cc1CC)CC(NC[C@H](O)c1ccc(O)c3[nH]c(=O)ccc13)C2 [INDACATEROL] have a reported Population Healthy Nuclei (%) of at least 30%?
-- reply class 1

-- ask Does `Cl.Cl.Nc1ncnc2c1c(-c1cccc(OCc3ccccc3)c1)cn2[C@H]1C[C@@H](CN2CCC2)C1` have a reported Population Healthy Nuclei (%) of at least 30%?
-- reply class 0

-- ask Does `Cc1cc2c(cc1N1C(=O)c3cccc4c(CCCO)ccc(c34)C1=O)n(C)c(=O)n2C` have a reported Population Healthy Nuclei (%) of at least 30%?
-- reply class 0

----------
Tested on: HEK-293T
EXPERIMENT DESCRIPTION: Multiplex assay against HEK293T
Assay type: toxicity, cell-based
CONDITION CONTEXT: human, 24 h, 1 µM, compound concentration 1 uM, replicate 1
Give Population Membrane Permeable-Phenotype (%) for every item shown.
Write the number in % without appending the unit.

-- ask Quote Population Membrane Permeable-Phenotype (%) reported for `CCc1cc2c(cc1CC)CC(NC[C@H](O)c1ccc(O)c3[nH]c(=O)ccc13)C2` please.
-- reply 4

-- ask Quote Population Membrane Permeable-Phenotype (%) reported for `Cl.Cl.Nc1ncnc2c1c(-c1cccc(OCc3ccccc3)c1)cn2[C@H]1C[C@@H](CN2CCC2)C1` please.
-- reply 0

-- ask Quote Population Membrane Permeable-Phenotype (%) reported for `COc1cc(N2CCC(N(C)C)CC2)ccc1Nc1ncc(Cl)c(Nc2ccccc2P(C)(C)=O)n1` please.
-- reply 5

-- ask Quote Population Membrane Permeable-Phenotype (%) reported for `O=C(O)c1ccc2cc(-c3ccc(O)c(C45CC6CC(CC(C6)C4)C5)c3)ccc2c1` please.
-- reply 6

-- ask Quote Population Membrane Permeable-Phenotype (%) reported for `CC(C)(C)c1cnc(CSc2cnc(NC(=O)C3CCNCC3)s2)o1` please.
-- reply 6

-- ask Quote Population Membrane Permeable-Phenotype (%) reported for `CN(C)CCOc1ccc(-c2nc(-c3ccncc3)c(-c3ccc4c(c3)CC/C4=N\O)[nH]2)cc1` please.
-- reply 23

-- ask Quote Population Membrane Permeable-Phenotype (%) reported for Cc1nc(Cc2cccc(C(F)(F)F)c2)sc1-c1ccc(C(N)=O)nc1 [TP-024n] please.
-- reply 2

-- ask Quote Population Membrane Permeable-Phenotype (%) reported for `c1ccc2oc(-c3csc(C4CCN(Cc5nc6ncccc6[nH]5)CC4)n3)cc2c1` please.
-- reply 8

-- ask Quote Population Membrane Permeable-Phenotype (%) reported for `COc1ccc(NS(=O)(=O)c2sc3ccc(Cl)cc3c2C)cc1N1CCNCC1.Cl` please.
-- reply 2

-- ask Quote Population Membrane Permeable-Phenotype (%) reported for `COc1cc2c(NC3CCN(C(C)C)CC3)nc(N3CCC(F)(F)CC3)nc2cc1OCCCN1CCCC1` please.
-- reply 1

-- ask Quote Population Membrane Permeable-Phenotype (%) reported for `Cl.Cl.NC1(c2ccc(-c3nc4ccn5c(=O)[nH]nc5c4cc3-c3ccccc3)cc2)CCC1` please.
-- reply 18

-- ask Quote Population Membrane Permeable-Phenotype (%) reported for `N#Cc1cnc(Nc2cc(NC[C@H]3CNCCO3)c(C(F)(F)F)cn2)cn1` please.
-- reply 5

-- ask Quote Population Membrane Permeable-Phenotype (%) reported for CN(C)C/C=C/C(=O)Nc1cc2c(Nc3ccc(F)c(Cl)c3)ncnc2cc1O[C@H]1CCOC1.O=C(O)/C=C\C(=O)O.O=C(O)/C=C\C(=O)O [AFATINIB DIMALEATE] please.
-- reply 6

-- ask Quote Population Membrane Permeable-Phenotype (%) reported for `CCOc1cc(N2CCC(O)CC2)ccc1Nc1ncc2c(n1)N(C1CCCC1)CCC(=O)N2C` please.
-- reply 2

-- ask Quote Population Membrane Permeable-Phenotype (%) reported for `CC(C)N1CCC(C)(C)c2cc(C#Cc3ccc(C(=O)O)cc3)ccc21` please.
-- reply 6

-- ask Quote Population Membrane Permeable-Phenotype (%) reported for `CC(=O)c1cc(-c2cc(C(=O)NC3CC3)ccc2C)c2ncccn12` please.
-- reply 2

-- ask Quote Population Membrane Permeable-Phenotype (%) reported for `COc1cc2c(Nc3ccc(NC(=O)c4ccccc4)cc3)ncnc2cc1OCCCN1CCOCC1` please.
-- reply 20

-- ask Quote Population Membrane Permeable-Phenotype (%) reported for `FC(F)c1nc2ccccc2n1-c1nc(N2CCOCC2)nc(N2CCOCC2)n1` please.
-- reply 8

----------
Tested on: U2OS
EXPERIMENT DESCRIPTION: Multiplex assay against U2OS
Assay type: toxicity, cell-based
CONDITION CONTEXT: human, 24 h, 1 µM, compound concentration 1 uM, replicate 2
PROPERTY MEASURED: Population Hoechst High Intensity Objects (%)
Write the number in % without appending the unit.

-- ask Quote Population Hoechst High Intensity Objects (%) reported for `COc1cc2c(NC3CCN(C(C)C)CC3)nc(N3CCC(F)(F)CC3)nc2cc1OCCCN1CCCC1` please.
-- reply 8

-- ask Quote Population Hoechst High Intensity Objects (%) reported for Cc1nc(Cc2cccc(C(F)(F)F)c2)sc1-c1ccc(C(N)=O)nc1 [TP-024n] please.
-- reply 5

-- ask Quote Population Hoechst High Intensity Objects (%) reported for `CN(C)CCOc1ccc(-c2nc(-c3ccncc3)c(-c3ccc4c(c3)CC/C4=N\O)[nH]2)cc1` please.
-- reply 21

-- ask Quote Population Hoechst High Intensity Objects (%) reported for `Cl.Cl.Nc1ncnc2c1c(-c1cccc(OCc3ccccc3)c1)cn2[C@H]1C[C@@H](CN2CCC2)C1` please.
-- reply 6

-- ask Quote Population Hoechst High Intensity Objects (%) reported for `CNC(=O)c1nn(C)c2c1C(C)(C)Cc1cnc(Nc3ccc(N4CCN(C)CC4)cc3)nc1-2` please.
-- reply 23

-- ask Quote Population Hoechst High Intensity Objects (%) reported for `COc1ccc(NS(=O)(=O)c2sc3ccc(Cl)cc3c2C)cc1N1CCNCC1.Cl` please.
-- reply 3

-- ask Quote Population Hoechst High Intensity Objects (%) reported for `Nc1ccc(C(=O)Nc2cccc(-c3nc(N4CCOCC4)c4oc5ncccc5c4n3)c2)cn1` please.
-- reply 5

-- ask Quote Population Hoechst High Intensity Objects (%) reported for `O=C(O)c1ccc2cc(-c3ccc(O)c(C45CC6CC(CC(C6)C4)C5)c3)ccc2c1` please.
-- reply 6

-- ask Quote Population Hoechst High Intensity Objects (%) reported for `CCOc1cc2ncc(C#N)c(Nc3ccc(OCc4cccc(F)c4)c(Cl)c3)c2cc1NC(=O)/C=C/CN(C)C` please.
-- reply 7
